Cited source: patent US11420966B2

experiment: GI Exposure PK in Mice; assay type: in vivo; settings: mouse; Ileum; male BalbC mice, oral dose of 5 mg/kg

| chemical.smiles | AUC |
| --- | --- |
| CNC(=O)c1coc(-c2cnc3[nH]ccc3c2N[C@@H]2C[C@H](C)CN(C(=O)CC#N)C2)n1 | 82500 ng·h/mL |

* * *

assay: GI Exposure PK in Mice; format: in vivo; conditions: mouse; Colon; male BalbC mice, oral dose of 5 mg/kg
experimental.readout: AUC

| molecule | reading |
| --- | --- |
| CNC(=O)c1coc(-c2cnc3[nH]ccc3c2N[C@@H]2C[C@H](C)CN(C(=O)CC#N)C2)n1 [Example 31] | 6820 ng·h/mL |

* * *

experiment: GI Exposure PK in Mice; assay type: in vivo; details: mouse; Duodenum; male BalbC mice, oral dose of 5 mg/kg

| chemical.smiles | Cmax |
| --- | --- |
| CNC(=O)c1coc(-c2cnc3[nH]ccc3c2N[C@@H]2C[C@H](C)CN(C(=O)CC#N)C2)n1 | 2880 ng/g |

* * *

test system: IFNγ stimulated STAT1 phosphorylation on Tyr701 (JAK1/2); test: JAK1/2 cellular target modulation: IFNγ stimulated phospho-STAT1 in PBMC; format: cell-based; settings: human PBMC, IFNγ 10 ng/ml; read-out: Infγ-STAT1 IC50
Listed here are compounds together with their documented IC50.
experimental.readout: IC50

| chemical.smiles | reading |
| --- | --- |
| N#CCC(=O)N1CCC[C@@H](Nc2c(-c3ncccn3)cnc3[nH]ccc23)C1 | > 1000 nM |
| N#CCC(=O)N1CCC[C@@H](Nc2c(-c3ccnc(N)n3)cnc3[nH]ccc23)C1 | 100 to 1000 nM |
| CS(=O)(=O)c1cnc(-c2cnc3[nH]ccc3c2N[C@@H]2CCCN(C(=O)CC#N)C2)s1 | ≤ 100 nM |
| CNC(=O)c1coc(-c2cnc3[nH]ccc3c2N[C@@H]2CC[C@H](C)N(C(=O)CC#N)C2)n1 | 100 to 1000 nM |

* * *

experiment: GI Exposure PK in Mice; assay type: in vivo; settings: mouse; Duodenum; male BalbC mice, oral dose of 5 mg/kg
experimental.readout: AUC (ng·h/mL)

| chemical.smiles | experimental.readout | reading |
| --- | --- | --- |
| CNC(=O)c1coc(-c2cnc3[nH]ccc3c2N[C@@H]2C[C@H](C)CN(C(=O)CC#N)C2)n1 | AUC | 4660 |

* * *

pIC50: −log10 of the molar value. Structures can show the parent of a compound that is named as a salt.
System: Tyk-2 (Homo sapiens (Human), UniProt P29597) | Read-out: pIC50
Sequence (P29597 whole entry): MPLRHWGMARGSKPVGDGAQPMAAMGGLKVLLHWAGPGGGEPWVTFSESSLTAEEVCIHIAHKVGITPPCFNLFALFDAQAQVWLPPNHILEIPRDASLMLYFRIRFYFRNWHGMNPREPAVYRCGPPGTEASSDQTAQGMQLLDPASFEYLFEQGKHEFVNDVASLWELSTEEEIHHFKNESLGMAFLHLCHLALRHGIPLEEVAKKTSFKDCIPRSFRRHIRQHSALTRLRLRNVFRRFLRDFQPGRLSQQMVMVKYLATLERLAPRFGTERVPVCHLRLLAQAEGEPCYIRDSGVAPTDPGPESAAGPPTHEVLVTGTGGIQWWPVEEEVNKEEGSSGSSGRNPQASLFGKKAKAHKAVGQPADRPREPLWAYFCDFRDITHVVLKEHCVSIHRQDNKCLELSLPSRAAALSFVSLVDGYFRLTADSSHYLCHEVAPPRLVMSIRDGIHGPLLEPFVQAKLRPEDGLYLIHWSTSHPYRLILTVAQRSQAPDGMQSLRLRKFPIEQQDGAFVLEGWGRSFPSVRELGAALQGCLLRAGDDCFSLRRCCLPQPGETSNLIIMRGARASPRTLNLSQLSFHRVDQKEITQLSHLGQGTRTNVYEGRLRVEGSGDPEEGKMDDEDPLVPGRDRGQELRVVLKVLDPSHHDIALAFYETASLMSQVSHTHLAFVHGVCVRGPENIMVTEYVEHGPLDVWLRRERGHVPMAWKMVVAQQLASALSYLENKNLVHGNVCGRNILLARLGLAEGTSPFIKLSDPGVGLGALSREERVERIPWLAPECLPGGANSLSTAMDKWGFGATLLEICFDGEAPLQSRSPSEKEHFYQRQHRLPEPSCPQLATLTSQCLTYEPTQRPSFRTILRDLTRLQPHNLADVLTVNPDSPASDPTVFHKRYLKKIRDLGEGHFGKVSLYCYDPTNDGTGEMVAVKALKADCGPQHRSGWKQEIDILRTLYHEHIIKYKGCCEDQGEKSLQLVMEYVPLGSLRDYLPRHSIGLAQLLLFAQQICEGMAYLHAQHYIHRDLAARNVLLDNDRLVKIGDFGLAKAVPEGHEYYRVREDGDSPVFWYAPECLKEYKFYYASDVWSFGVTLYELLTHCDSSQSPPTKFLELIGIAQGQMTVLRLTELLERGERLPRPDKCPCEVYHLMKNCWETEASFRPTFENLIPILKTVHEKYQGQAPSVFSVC
experimental.readout: pIC50

| compound | tgt | experimental.readout | reading |
| --- | --- | --- | --- |
| N#CCC(=O)N1CCC[C@@H](Nc2c(-c3nnco3)cnc3[nH]ccc23)C1 | Tyk-2 (Homo sapiens (Human), UniProt P29597) | pIC50 | 7.00 to 8.00 |
| Cc1ccnc(-c2cnc3[nH]ccc3c2N[C@@H]2CCCN(C(=O)CC#N)C2)n1 | Tyk-2 (Homo sapiens (Human), UniProt P29597) | pIC50 | 7.00 to 8.00 |
| N#CCC(=O)N1CCC[C@@H](Nc2c(-c3ncco3)cnc3[nH]ccc23)C1 | Tyk-2 (Homo sapiens (Human), UniProt P29597) | pIC50 | ≥ 8.00 |
| CNCCOc1cccc(-c2cnc3[nH]ccc3c2N[C@@H]2CCCN(C(=O)CC#N)C2)n1 [Example 58, hydrochloride] | Tyk-2 (Homo sapiens (Human), UniProt P29597) | pIC50 | 6.00 to 7.00 |
